Every entry's value here was drawn from patent US20210388081A1.

ASSAYED_SYSTEM: T1, Fc Receptor-like 5 (FcRL5), full length, overexpressed on 3T3 or Raji cells (human, UniProt Q96RD9 16-977)
T1 construct: also called 3T3-FcRL5
T1 sequence: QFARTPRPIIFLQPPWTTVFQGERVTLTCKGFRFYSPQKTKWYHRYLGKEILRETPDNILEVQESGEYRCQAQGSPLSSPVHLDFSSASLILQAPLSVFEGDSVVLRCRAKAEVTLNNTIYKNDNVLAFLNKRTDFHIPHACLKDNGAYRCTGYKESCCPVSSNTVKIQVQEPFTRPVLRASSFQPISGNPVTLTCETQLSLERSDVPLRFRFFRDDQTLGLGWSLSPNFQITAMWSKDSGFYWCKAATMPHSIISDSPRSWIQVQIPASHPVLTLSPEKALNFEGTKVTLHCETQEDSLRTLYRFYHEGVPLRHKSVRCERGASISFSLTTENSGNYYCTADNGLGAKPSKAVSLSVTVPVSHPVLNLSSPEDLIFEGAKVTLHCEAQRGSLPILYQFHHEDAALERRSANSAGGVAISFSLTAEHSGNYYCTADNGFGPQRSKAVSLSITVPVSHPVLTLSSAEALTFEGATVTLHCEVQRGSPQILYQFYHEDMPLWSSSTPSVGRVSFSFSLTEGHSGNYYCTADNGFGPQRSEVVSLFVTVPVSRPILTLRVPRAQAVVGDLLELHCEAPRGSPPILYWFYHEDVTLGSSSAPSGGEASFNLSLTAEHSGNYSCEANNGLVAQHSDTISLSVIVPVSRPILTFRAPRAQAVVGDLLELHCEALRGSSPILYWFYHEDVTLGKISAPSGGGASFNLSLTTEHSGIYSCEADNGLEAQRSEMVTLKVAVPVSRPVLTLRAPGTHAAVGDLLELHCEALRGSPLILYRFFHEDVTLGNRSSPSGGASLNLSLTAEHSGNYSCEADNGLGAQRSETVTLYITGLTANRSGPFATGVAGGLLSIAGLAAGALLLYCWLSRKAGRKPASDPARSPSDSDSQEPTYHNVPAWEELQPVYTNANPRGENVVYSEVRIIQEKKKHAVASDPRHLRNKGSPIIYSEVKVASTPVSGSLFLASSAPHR
MEASUREMENT_PROTOCOL: phage clone screening on cells
REPORTED_METRIC: binding result

binder="ET200-045 (scFv, screened as phage clone; entry is VL-linker-VH-His tag-HA tag) scFv: QPVLTQPPSVSVAPGKTATITCGGNNIGSESVHWYHQKPGQAPVLVIYDDAGRPSGIPERFTGSNSGNTATLTISRVEAGDEADYYCQVWDRNSAQFVFGPGTKVTVLGSRGGGGSGGGGSGGGGSLEMAEVQLVQSGAEVKKPGASVKVSCKASGYTFTSYGISWVRQAPGQGLEWMGWISAYNGNTNYAQKLQGRVTMTTDTSTSTAYMELRSLRSDDTAVYYCARGVHLDWWGQGTLVTVSSTSGQAGQHHHHHHGAYPYDVPDYAS" reported_metric="binding result" result=binds
binder="ET200-115 (scFv, screened as phage clone; entry is VL-linker-VH-His tag-HA tag) scFv: QSVLTQPPSVSGAPGQRVTISCTGSSSNIGARYDVHWYQQLPGTAPRLLISANYDRPSGVPDRFSGSKSGTSASLAITGLQAEDEADYYCQSYDSSVSAWVFGGGTKVTVLGSRGGGGSGGGGSGGGGSLEMAEVQLVQSGAEVKEPGASVRISCQASGYNFISYYMHWVRQAPGQGLEWMGTINPGSGETDYSQKLQGRVTMTRDPSTGTFDMGLSSLTSGDTAVYYCATGLIRGASDAFNIWGRGTMVTVSSTSGQAGQHHHHHHGAYPYDVPDYAS" reported_metric="binding result" result=binds
